Tested on: Hep-3B (human liver carcinoma)
test: Cytotoxicity assay (Cell Counting Kit-8), Hep-3B
Assay type: cell-based
conditionSet: 72 h of drug treatment, means ± SD of 3 independent experiments
Property: IC50; scope: individual molecules
measuredAttribute: IC50

molecule | endpointValue
CC1(C)CCCC2(C)C1CCC13CC(C(O)CC21)C(O)(CO)C3O (stereo not drawn) [Compound 5, 12α,15β,16α,17-tetrahydroxy-ent-kaurane] | > 20 µM
CCc1c2c(nc3ccc(OC(=O)N4CCC(N5CCCCC5)CC4)cc13)-c1cc3c(c(=O)n1C2)COC(=O)[C@]3(O)CC [CPT-11, reference compound] | 23.2 µM
